Just for reference, patent US20130216547A1 is where these values come from.

# system tested: T1, human big-endothelin-1 (big-ET-1) (human)
# T1 construct: 38 amino acid peptide; also called human big-ET-1; hBig-ET-1
# T1 peptide: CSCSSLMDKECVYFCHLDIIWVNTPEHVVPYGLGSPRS
# measurement description: SPR (Biacore T200), 37 C, mAb capture, peptide analyte
observed property: T½ (min)
Write the value in min as a bare number.

Query H1M6492N (antibody, V domains shown, Hybridoma antibody, human variable domains, mouse constant domains; prefix H1M marks the Fc region (isotype not spelled out)) VH: EVQLVESGGGLVKPGGSLRVSCVASGFTFSNAWMTWVRQTPGKGLECVGRIKSRTDGGTVDYVAPVKGRFTISRDDSKNTLYLQMNSLKAEDTAVYYCRADLDYWGQGTLVTVSS VL: DVVMTQSPLSLPVSLGQPASISCRSSQSLVHSDGITYLNWFQQRPGQSPRRLIYKISNRDSGVPDRFSGSGSGTDFTLKFSRVEAEDVGVYFCMQGTHWPYTFGQGTKLEIK yields T½ of 7
